Data provenance: patent US9605283B2

substrate: O=C(O)[C@@H](O)CCO; assay: cells, lysate or membranes named; assay type: biochemical, Escherichia coli; settings: other: 37° C., pH 8, 10 mM NAD
experimental endpoint: Km (mM)
Numeric answer only, unit mM assumed.

Can you look up the measured Km of Escherichia coli malate dehydrogenase Ec-Mdh variant R81A M85E, SEQ ID No. 160 (Escherichia coli K-12; M85E/R81A) (protein) MKVAVLGAAGGIGQALALLLKTQLPSGSELSLYDIAPVTPGVAVDLSHIPTAVKIKGFSGEDATPALEGADVVLISAGVAAKPGEDRSDLFNVNAGIVKNLVQQVAKTCPKACIGIITNPVNTTVAIAAEVLKKAGVYDKNKLFGVTTLDIIRSNTFVAELKGKQPGEVEVPVIGGHSGVTILPLLSQVPGVSFTEQEVADLTKRIQNAGTEVVEAKAGGGSATLSMGQAAARFGLSLVRALQGEQGVVECAYVEGDGQYARFFSQPLLLGKNGVEERKSIGTLSAFEQNALEGMLDTLKKDIALGEEFVNK for me?
48
